Cited source: the supplement of paper PMC8371130

# System: HL-1
# method: relative cell viability (CellTiter-Glo) vs DMSO control (% of DMSO control); higher = more viable cells
# recorded_conditions: oxygen condition: hypoxia 48 h (1% O2) + reoxygenation 24 h; 1000 nM
Where a name gives a salt, the structure may show the parent alone.
Labelling: relative cell viability reported below 100 becomes 1.0; at or above becomes 0.0.

>>> df
                                   compound  answer_label
0           CC(C)N(CCNC(=O)CN1CCCC1=O)C(C)C           0.0
1  CCCN1C[C@H](CSC)C[C@@H]2c3cccc4[nH]cc(c34)C[C@H]21 [Pergolide mesylate]           0.0
2  CCC1(c2ccc(N)cc2)CCC(=O)NC1=O (centres undefined) [Aminoglutethimide]           1.0
3            OC(c1ccccc1)(c1ccccc1)C1CCNCC1           0.0
4  CCOC(=O)c1cncn1[C@H](C)c1ccccc1 [Etomidate]           0.0
5  CC[C@@]1(O)C(=O)OCc2c1cc1n(c2=O)Cc2cc3ccccc3nc2-1           1.0

----------
# Test system: HL-1
# method: relative cell viability (CellTiter-Glo) vs DMSO control (% of DMSO control); higher = more viable cells
# recorded_conditions: oxygen condition: normoxia 72 h; 5000 nM
measurement_label: relative cell viability

>>> print(df.to_string())
                                   molecule  tested_target  endpoint_value
0  O=P1(NCCCl)OCCCN1CCCl (stereo not given) [Ifosfamide]           HL-1             112
1  CN1c2ccccc2C(NCCCCCCC(=O)O)c2ccc(Cl)cc2S1(=O)=O (stereo not given) [Tianeptine sodium]           HL-1             110
2              Cc1cccc(C)c1NC(=O)CN1CCCC1=O           HL-1             101
3  CN(C)C(=O)Oc1cccc([N+](C)(C)C)c1 [Neostigmine bromide]           HL-1             109
4  CNC1CC(N)C(O)C(OC2OC(CO)C(O)C3OC4(OC(C(N)CO)C(O)C(O)C4O)OC23)C1O (stereo not given)           HL-1             106

----------
# Tested on: HL-1
# method: relative cell viability (CellTiter-Glo) vs DMSO control (% of DMSO control); higher = more viable cells
# recorded_conditions: oxygen condition: normoxia 72 h; 200 nM
Counter-ions that a name gives are not always drawn.
measurement_label: relative cell viability

>>> df
                                    molecule        measurement_label  endpoint_value
 0  CC[C@@]1(O)C(=O)OCc2c1cc1n(c2=O)Cc2cc3ccccc3nc2-1  relative cell viability             105
 1  C[C@]12CC[C@H](O)CC1=CC[C@@H]1[C@@H]2CC[C@]2(C)C(=O)CC[C@@H]12 [Dehydroepiandrosterone]  relative cell viability            95.8
 2  O=C1CC[C@@]2(O)[C@H]3Cc4ccc(O)c5c4[C@@]2(CCN3CC2CC2)[C@H]1O5 [Naltrexone HCl]  relative cell viability             106
 3                       COC(=O)C1=CCCN(C)C1  relative cell viability             112
 4  O=P1(NCCCl)OCCCN1CCCl (configuration not stated) [Ifosfamide]  relative cell viability             101
 5            OC(c1ccccc1)(c1ccccc1)C1CCNCC1  relative cell viability             101
 6  CCC1(c2ccc(N)cc2)CCC(=O)NC1=O (configuration not stated) [Aminoglutethimide]  relative cell viability            93.8
 7  CC(O)(CS(=O)(=O)c1ccc(F)cc1)C(=O)Nc1ccc(C#N)c(C(F)(F)F)c1 (configuration not stated) [Bicalutamide]  relative cell viability             111
 8  CCN(C)C(=O)Oc1cccc([C@H](C)N(C)C)c1 [Rivastigmine tartrate]  relative cell viability             106
 9  C[C@]12CC[C@H]3[C@@H](CC[C@@]45O[C@@H]4C(O)=C(C#N)C[C@]35C)[C@@H]1CC[C@@H]2O  relative cell viability             116
10  C[C@]12C/C(=C/O)C(=O)C[C@@H]1CC[C@@H]1[C@@H]2CC[C@@]2(C)[C@H]1CC[C@]2(C)O  relative cell viability             102
11  C=CC[C@]1(O)CC[C@H]2[C@@H]3CCC4=CC(=O)CCC4=C3C=C[C@@]21C  relative cell viability             107
12  C#C[C@]1(O)C=C[C@H]2[C@@H]3CCC4=CC(=O)CC[C@@H]4[C@H]3CC[C@@]21CC  relative cell viability             103
13  CC[N+]1(C)CCCC(OC(=O)C(O)(c2ccccc2)c2ccccc2)C1 (configuration not stated) [Pipenzolate Bromide]  relative cell viability             111
14  C[N+]1(C)[C@@H]2C[C@@H](OC(=O)[C@H](CO)c3ccccc3)C[C@H]1[C@@H]1O[C@@H]12  relative cell viability             101
15              N.N.[Cl][Pt][Cl] [Cisplatin]  relative cell viability            80.6
16  C[N+](C)(C)CCCCCCCCCC[N+](C)(C)C [Decamethonium bromide]  relative cell viability             103

----------
# Tested on: HL-1
# method: relative cell viability (CellTiter-Glo) vs DMSO control (% of DMSO control); higher = more viable cells
# recorded_conditions: oxygen condition: hypoxia 48 h (1% O2) + reoxygenation 24 h; 5000 nM
Counter-ions that a name gives are not always drawn.

molecule	relative cell viability
CCC1(c2cccc(O)c2)CCCCN(C)C1 (stereo not drawn) [Meptazinol HCl]	109
C=CCN1CC[C@]23c4c5ccc(O)c4O[C@H]2C(=O)CC[C@@]3(O)[C@H]1C5 [Naloxone HCl]	117
N.N.[Cl][Pt][Cl] [Cisplatin]	111
CC(C)NCC(O)c1ccccc1Cl (stereo not drawn) [Clorprenaline HCL]	117
C=CC[C@]1(O)CC[C@H]2[C@@H]3CCC4=CC(=O)CCC4=C3C=C[C@@]21C [Altrenogest]	108
O=P1(NCCCl)OCCCN1CCCl (stereo not drawn) [Ifosfamide]	109
NCCc1c[nH]c2ccc(O)cc12 [Serotonin HCl]	107
CCCN1C[C@H](CSC)C[C@@H]2c3cccc4[nH]cc(c34)C[C@H]21 [Pergolide mesylate]	109
CN1[C@@H]2CC[C@H]1C[C@@H](OC(=O)[C@H](CO)c1ccccc1)C2 [Hyoscyamine]	106
CCC(COC(=O)c1cc(OC)c(OC)c(OC)c1)(c1ccccc1)N(C)C (stereo not drawn) [Trimebutine]	103
O=C(O)c1nn(Cc2ccc(Cl)cc2Cl)c2ccccc12 [Lonidamine]	111
CNC1CC(N)C(O)C(OC2OC(CO)C(O)C3OC4(OC(C(N)CO)C(O)C(O)C4O)OC23)C1O (stereo not drawn) [Hygromycin B]	110
COc1ccc(C(=O)N2CCCC2=O)cc1 [Aniracetam]	113
CNCC(=O)c1ccc(O)c(O)c1 [Adrenalone HCl]	108
CCOC(=O)c1cncn1[C@H](C)c1ccccc1 [Etomidate]	115
CC[C@@H](C(N)=O)N1CCCC1=O [Levetiracetam]	113
C/C=C(\C)C(=O)N[C@@H](c1ccccc1)[C@@H](O)C(=O)O[C@H]1C[C@@]2(O)[C@@H](OC(=O)c3ccccc3)[C@@H]3[C@]4(OC(C)=O)CO[C@@H]4C[C@H](O)[C@@]3(C)C(=O)[C@H](OC(C)=O)C(=C1C)C2(C)C [Cephalomannine]	28
CN1C(=O)COc2c(C(=O)NC3CN4CCC3CC4)cc(Cl)cc21 (stereo not drawn) [Azasetron HCl]	106

----------
# System: HL-1
# method: relative cell viability (CellTiter-Glo) vs DMSO control (% of DMSO control); higher = more viable cells
# recorded_conditions: oxygen condition: normoxia 72 h; 5000 nM
Structures can show the parent of a compound that is named as a salt.
# relative cell viability values compiled below

compound	relative cell viability
C=CC[C@]1(O)CC[C@H]2[C@@H]3CCC4=CC(=O)CCC4=C3C=C[C@@]21C	105
C[C@@H]1O[C@@H](O[C@H]2C[C@@H](O)[C@]3(CO)[C@H]4[C@H](O)C[C@]5(C)[C@@H](C6=CC(=O)OC6)CC[C@]5(O)[C@@H]4CC[C@]3(O)C2)[C@H](O)[C@H](O)[C@H]1O	124
CC(C)NCC(O)c1ccccc1Cl (stereo not drawn) [Clorprenaline HCL]	108
C=C1C[C@@H]2[C@H](CC[C@]3(C)C(=O)CC[C@@H]23)[C@@]2(C)C=CC(=O)C=C12	112
Cc1cccc([C@H](C)c2c[nH]cn2)c1C	116
N.N.[Cl][Pt][Cl] [Cisplatin]	110
COc1ccc(OC)c(C(O)C(C)N)c1 (stereo not drawn) [Methoxamine HCl]	123
C#C[C@]1(O)C=C[C@H]2[C@@H]3CCC4=CC(=O)CC[C@@H]4[C@H]3CC[C@@]21CC	106
